Test details: Apparent permeability across apical to basolateral side in human Caco-2 cells at 2 uM measured after 2 hrs by […] dye based microplate reader analysis
Assay type: ADME, cell-based
Readout: Papp A→B at 2 h, 2 µM

Structure as smiles	Assay value
Br.Cc1c2c(cc[n+]1Cc1ccccc1)c1ccc(OCC(=O)OCCCCOc3no[n+]([O-])c3S(=O)(=O)c3ccccc3)cc1n2CCCc1ccccc1	< 0.05 ×10⁻⁶ cm/s

----------
Test details: Cytotoxicity against human L02 cells assessed as reduction in cell viability incubated for 72 hrs by CCK-8 assay
Assay type: toxicity, cell-based

Structure as smiles	IC50 at 72 h
COc1ccc2c(c1)[nH]c1c(C)nccc12	25.1 µM
O=S(=O)(c1ccccc1)c1c(OCCCCO)no[n+]1[O-]	17.9 µM
O=S(=O)(c1ccccc1)c1c(OCCCO)no[n+]1[O-]	21.7 µM
Br.Cc1c2c(cc[n+]1Cc1ccccc1)c1ccc(OCC(=O)OCCCCOc3no[n+]([O-])c3S(=O)(=O)c3ccccc3)cc1n2CCCc1ccccc1	10 µM
Cc1c2c(cc[n+]1Cc1ccccc1)c1ccc(OCC(=O)O)cc1n2CCCc1ccccc1	90.3 µM
